molecular target: Nuclear factor erythroid 2-related factor 2 (Homo sapiens) (UniProt Q16236); assay: Activation of Nrf2 in human HepG2-ARE-C8 cells assessed as upregulation of ARE level at 0.02 uM after 12 hrs by luciferase reporter gene assay relative to control; type: cell-based
Sequence (Q16236 whole entry): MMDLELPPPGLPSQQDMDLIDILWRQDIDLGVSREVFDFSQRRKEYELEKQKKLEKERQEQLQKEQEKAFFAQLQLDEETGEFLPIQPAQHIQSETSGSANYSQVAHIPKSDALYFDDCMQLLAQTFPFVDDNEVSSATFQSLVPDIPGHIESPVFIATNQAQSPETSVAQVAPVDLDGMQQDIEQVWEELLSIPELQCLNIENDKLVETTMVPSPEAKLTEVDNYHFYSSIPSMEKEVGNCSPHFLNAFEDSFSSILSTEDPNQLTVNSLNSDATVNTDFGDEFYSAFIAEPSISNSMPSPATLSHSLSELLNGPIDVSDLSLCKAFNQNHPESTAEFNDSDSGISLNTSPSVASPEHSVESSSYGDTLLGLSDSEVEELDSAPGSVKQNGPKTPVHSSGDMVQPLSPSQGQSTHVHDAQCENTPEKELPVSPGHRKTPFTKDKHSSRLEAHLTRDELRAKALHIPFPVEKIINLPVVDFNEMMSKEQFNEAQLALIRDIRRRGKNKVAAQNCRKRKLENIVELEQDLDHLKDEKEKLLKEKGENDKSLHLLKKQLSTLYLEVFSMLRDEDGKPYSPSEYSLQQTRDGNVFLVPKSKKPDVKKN
Listed molecules paired with reported fold change (FC)
Respond with the number and no other words.

FC(F)(F)c1ccc(-c2nc(-c3ccc4nc[nH]c4c3)no2)cc1 | 1.35
c1ccc2nc(-c3nc(-c4ccc5nc[nH]c5c4)no3)ccc2c1 | 1.61
Brc1ccc(-c2nc(-c3ccc4nc[nH]c4c3)no2)cc1 | 1.31
Cn1nnc2cc(-c3noc(-c4ccccc4)n3)ccc21 | 1.18
CCc1ccc(-c2nc(-c3ccc4nc[nH]c4c3)no2)cc1 | 1.37
c1ccc2cc(-c3nc(-c4ccc5nc[nH]c5c4)no3)ccc2c1 | 1.42
COc1cccc(-c2nc(-c3ccc4nc[nH]c4c3)no2)c1 | 1.79
Clc1ccc(-c2nc(-c3ccc4nc[nH]c4c3)no2)cc1 | 2.03

query: Please tell me: fold change (FC) of c1ccc(-c2nc(-c3ccc4nc[nH]c4c3)no2)nc1 , system Nuclear factor erythroid 2-related factor 2 (Homo sapiens) (UniProt Q16236)?
result: 1.06

====

molecular target: Nuclear factor erythroid 2-related factor 2 (Homo sapiens); assay: Activation of Nrf2 in human HepG2-ARE-C8 cells assessed as upregulation of ARE level at 160 uM after 12 hrs by luciferase reporter gene assay relative to control; format: cell-based
Test readout: fold change (FC)

Oc1cccc(-c2nc(-c3ccc4nc[nH]c4c3)no2)c1 | 3.93
c1cc2ccc(-c3nc(-c4ccc5nc[nH]c5c4)no3)cc2[nH]1 | 8.88
Cc1cccc(-c2nc(-c3ccc4nc[nH]c4c3)no2)c1 | 8.99

query: // returns reported fold change (FC) for input Oc1ccc(-c2nc(-c3ccc4nc[nH]c4c3)no2)cc1
result: 7.35

====

Listed compounds paired with reported fold change (FC)
target: Nuclear factor erythroid 2-related factor 2 (Homo sapiens) (UniProt Q16236); test: Activation of Nrf2 in human HepG2-ARE-C8 cells assessed as upregulation of ARE level at 80 uM after 12 hrs by luciferase reporter gene assay relative to control; assay type: cell-based
Respond with the number and no other words.

Sample records with fold change (FC):
Cn1cnc2ccc(-c3noc(-c4ccccc4)n3)cc21 | 3.33
COc1ccc(-c2nc(-c3ccc4nc[nH]c4c3)no2)c(OC)c1 | 4.35

query: // returns reported fold change (FC) for input c1ccc2nc(-c3nc(-c4ccc5nc[nH]c5c4)no3)ccc2c1
result: 6.61

====

molecular target: Nuclear factor erythroid 2-related factor 2 (Homo sapiens); experiment: Activation of Nrf2 in human HepG2-ARE-C8 cells assessed as upregulation of ARE level at 160 uM after 12 hrs by luciferase reporter gene assay relative to control; format: cell-based
Listed compounds paired with reported fold change (FC)
Respond with the number and no other words.

O=[N+]([O-])c1ccccc1-c1nc(-c2ccc3nc[nH]c3c2)no1 | 38.4
CCCc1ccc(-c2nc(-c3ccc4nc[nH]c4c3)no2)cc1 | 10
c1ccc(-c2nc(-c3ccc4nc[nH]c4c3)no2)cc1 | 4.46

query: Please tell me: fold change (FC) of CCCCc1ccc(-c2nc(-c3ccc4nc[nH]c4c3)no2)cc1 , system Nuclear factor erythroid 2-related factor 2 (Homo sapiens)?
result: 12

query: Cc1ccc(-c2nc(-c3ccc4nc[nH]c4c3)no2)cc1 , same question.
result: 9.22

query: Cc1ccccc1-c1nc(-c2ccc3nc[nH]c3c2)no1 , same question.
result: 7.85

query: CC(C)(C)C1=CC(=O)C=CC1=O , same question.
result: 8.46

Cited source for all entries: ChEMBL document CHEMBL3585308
